system: 454973-116-R2-J3-PDC spheroids, viability, % test/control; assay: Anticancer human tumor 454973-116-R2-J3-PDC patient-derived pancreatic carcinoma cell line growth inhibition [GQUAD]; settings: second compound 3.16 µM; first compound 10 µM; active compounds read low; spheroids with HUVEC and MSC;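 further: spheroids exposed to compounds for seven days; 100% = DMSO vehicle control viability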
Below: a set of entries, each annotated with reported viability, T/C.
property: viability, T/C (%)

- COc1cccc2c1C(=O)c1c(O)c3c(c(O)c1C2=O)CC(O)(C(=O)CO)CC3OC1CC(N)C(O)C(C)O1 (stereo unspecified) + Cc1[nH]c2ccc(F)cc2c1-c1nc2c3cccnc3c3ncccc3c2[nH]1: 0.52
- C=CC(=O)N1CCN(c2nc(=O)n(-c3c(C)ccnc3C(C)C)c3nc(-c4c(O)cccc4F)c(F)cc23)C(C)C1 (stereo unspecified) + Cc1cnc(CNC(=O)c2c(=O)c3ccc(N4CCCN(C)CC4)nc3n3c2sc2ccccc23)cn1: 76.7
- Nc1ccn(C2OC(CO)C(O)C2(F)F)c(=O)n1 (stereo unspecified) + CN(C)c1ccc(Nc2c3ccc(NC(=O)CCN4CCCC4)cc3nc3cc(NC(=O)CCN4CCCC4)ccc23)cc1: 14.7
- O=C(NO)c1cnc(N2CCN(S(=O)(=O)c3ccc4ccccc4c3)CC2)nc1 + Cc1cnc(CNC(=O)c2c(=O)c3ccc(N4CCCN(C)CC4)nc3n3c2sc2ccccc23)cn1: 0.53
- CC(C)(O)C1CCC(Nc2ccc3ncc(-c4cccc(C(F)(F)F)c4)n3n2)CC1 (stereo unspecified) + Cc1cnc(CNC(=O)c2c(=O)c3ccc(N4CCCN(C)CC4)nc3n3c2sc2ccccc23)cn1: 25.9
- COc1ncnc(C2CC2)c1-c1ncc2cnn(Cc3ccc(-c4nc(C(F)(F)F)cn4C(C)C)cc3)c2n1 + Cc1cnc(CNC(=O)c2c(=O)c3ccc(N4CCCN(C)CC4)nc3n3c2sc2ccccc23)cn1: 54
- C=CCn1c(=O)c2cnc(Nc3ccc(N4CCN(C)CC4)cc3)nc2n1-c1cccc(C(C)(C)O)n1 + CN(C)c1ccc(Nc2c3ccc(NC(=O)CCN4CCCC4)cc3nc3cc(NC(=O)CCN4CCCC4)ccc23)cc1: 12.1
- Cc1cccc(N(C)C(=O)C2C(O)CCN2c2nc(C)cc(C(F)(F)F)c2C#N)c1 (stereo unspecified) + Cc1[nH]c2ccc(F)cc2c1-c1nc2c3cccnc3c3ncccc3c2[nH]1: 105
- CC1COCCN1c1cc(-c2ccnn2C)c2ccnc(-c3ccn[nH]3)c2n1 (stereo unspecified) + Cc1[nH]c2ccc(F)cc2c1-c1nc2c3cccnc3c3ncccc3c2[nH]1: 24.9
- COc1cc(C2c3cc4c(cc3C(OC3OC5COC(C)OC5C(O)C3O)C3COC(=O)C23)OCO4)cc(OC)c1O (stereo unspecified) + Cc1[nH]c2ccc(F)cc2c1-c1nc2c3cccnc3c3ncccc3c2[nH]1: 13.4
- O=C(c1cc(Cc2n[nH]c(=O)c3ccccc23)ccc1F)N1CCN(C(=O)C2CC2)CC1 + Cc1[nH]c2ccc(F)cc2c1-c1nc2c3cccnc3c3ncccc3c2[nH]1: 63.3
